- System: Haemophilus influenzae
- Assay: Antimicrobial susceptibility against Haemophilus influenzae C2 isolate with GyrA Asp88Asn, AcrR Leu31His and Arg34Glu mutation
- Type: functional
Value Type: MIC (µg/mL)

# Compound, Value Type, Units Text, Measured Value
records = [
    ("C[C@H]1COc2c(N3CCN(C)CC3)c(F)cc3c(=O)c(C(=O)O)cn1c23.C[C@H]1COc2c(N3CCN(C)CC3)c(F)cc3c(=O)c(C(=O)O)cn1c23.O [LEVOFLOXACIN]", "MIC", "µg/mL", 2),
    ("CCn1cc(C(=O)O)c(=O)c2ccc(C)nc21 [NALIDIXIC ACID]", "MIC", "µg/mL", 128),
    ("COc1c(N2C[C@@H]3CCCN[C@@H]3C2)c(F)cc2c(=O)c(C(=O)O)cn(C3CC3)c12 [MOXIFLOXACIN]", "MIC", "µg/mL", 4),
    ("O=C(O)c1cn(C2CC2)c2cc(N3CCNCC3)c(F)cc2c1=O [CIPROFLOXACIN]", "MIC", "µg/mL", 2),
]
